Test: activity coefficient (dimensionless); of the first substance listed, at infinite dilution; xn = mol fraction of the nth substance listed
Details: 353.15 K; 101.33 kPa; Liquid; Chromatography; x1 = 0
activity coefficient strictly under 1 means rule met; at 1 or over means rule not met.

Query :: activity coefficient strictly < 1 for this compound? CCCCCC [hexane] + CCCCCCCCn1cc[n+](C)c1C.O=S(=O)([N-]S(=O)(=O)C(F)(F)F)C(F)(F)F
Result :: rule not met

Query :: Does the reported activity coefficient of CCCCCCCC [octane] + CCCCCCCCn1cc[n+](C)c1C.O=S(=O)([N-]S(=O)(=O)C(F)(F)F)C(F)(F)F stay below 1?
Result :: rule not met

Query :: Dear reviewer, please state whether CCOC(C)=O [ethyl acetate] + CCCCCCCCn1cc[n+](C)c1C.O=S(=O)([N-]S(=O)(=O)C(F)(F)F)C(F)(F)F has activity coefficient strictly beneath 1.
Result :: rule met

Query :: Please let me know if CCCO [propan-1-ol] + CCCCCCCCn1cc[n+](C)c1C.O=S(=O)([N-]S(=O)(=O)C(F)(F)F)C(F)(F)F shows activity coefficient below 1.
Result :: rule not met

Query :: Problem: For the compound CC#N [acetonitrile] + CCCCCCCCn1cc[n+](C)c1C.O=S(=O)([N-]S(=O)(=O)C(F)(F)F)C(F)(F)F , is activity coefficient under 1?
Result :: rule met

Query :: Does the reported activity coefficient of the following compound sit strictly below 1? CCCCO [butan-1-ol] + CCCCCCCCn1cc[n+](C)c1C.O=S(=O)([N-]S(=O)(=O)C(F)(F)F)C(F)(F)F
Result :: rule not met
